# experimental_system: T1, RAGE-Fc (human, UniProt Q15109 23-344, limits assumed)
# T1 construct: also called hRAGE; not shown: Fc part, detected with anti-hIgG Fc-specific conjugate
# T1 sequence (Q15109 23-344 limits assumed): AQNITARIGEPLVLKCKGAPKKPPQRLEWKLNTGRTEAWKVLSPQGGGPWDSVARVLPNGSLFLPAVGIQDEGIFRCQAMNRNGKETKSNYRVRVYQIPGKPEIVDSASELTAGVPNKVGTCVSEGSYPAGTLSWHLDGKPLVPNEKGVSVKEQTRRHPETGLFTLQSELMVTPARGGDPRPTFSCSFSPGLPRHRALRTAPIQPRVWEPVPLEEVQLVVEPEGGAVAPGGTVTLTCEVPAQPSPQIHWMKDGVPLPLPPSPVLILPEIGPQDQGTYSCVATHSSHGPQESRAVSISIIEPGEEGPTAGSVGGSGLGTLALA
# assay_remarks: competition ELISA, RAGE-S100B interaction
Recorded IC50 values for a group of binders are listed next.
Lab book: enter the figure in nM, no units written.

binder="158 RAGE-1 (antibody, V domains shown, Anti-RAGE monoclonal antibody from a hybridoma, captured by anti-mouse Fc; also called LP08105) VH: QIQLVQSGPELKKPGETVKISCKASGYTFTDYSMHWVKQAPGKGLKWMGWINTETGEPTYADDFKGRFAFSLETSASTAYLLINNLKTEDTATYFCARDYLYYYAMDYWGQGTSVTVSS VL: DVVLTQTPLSLPVNIGDQASISCKSTKSLLNSDGFTYLDWYLQKPGQSPQLLIYLVSNRFSGVPDRFSGSGSGTDFTLKISRVEAEDLGVYYCFQSNYLPLTFGGGTKVEIK" metric=IC50 units_symbol=nM meas_value=0.7
binder="240 RAGE-1 (antibody, V domains shown, Anti-RAGE monoclonal antibody from a hybridoma, captured by anti-mouse Fc; also called LP08108) VH: QIQLVQSGPELKKPGETVKISCKASGYTFTDYSMHWVKQAPGKGLKWMGWINTETGEPTYADDFKGRFAFSLETSASTAYLQINNLKNEDTATYFCARDYLYYYAMDYWGQGTSVTVSS VL: DVVLTQTPLSLPVSIGDQASISCKSTKSLLNSDGFTYLDWYLQKPGQSPQLLIYLVSNRFSGVPDSFSGSGSGTDFTLKISRVEAEDLGVYYCFQSNYFPLTFGGGTTLEIK" metric=IC50 units_symbol=nM meas_value=0.8
binder="166 RAGE-1 (antibody, V domains shown, Anti-RAGE monoclonal antibody from a hybridoma, captured by anti-mouse Fc; also called LP08122; LP08122D) VH: QVQLQQSGPELVKPGTSVRISCKASGYTFTSYYIHWVKQRPGQGLEWIGWIYPGNVITNYHEKFKGKASLTADKSSSTAYMQLSSLTSEDSAVYFCAREDPFAYWGQGTLVTVSA VL: NIMMTQSPSSLAVSAGEKVTMSCKSSQSVLYSSNQKNYLAWYQQKPGQSPKLLIYWASTRESGVPDRFTGSGSGTDFTLTISSVQAEDLAVYYCHQYLSSYTFGGGTKLEIK" metric=IC50 units_symbol=nM meas_value=0.8
binder="326 RAGE-1 (antibody, V domains shown, Anti-RAGE monoclonal antibody from a hybridoma, captured by anti-mouse Fc; also called LP08137; Protein 326 RAGE-1) VH: EVKLVESGGGLVKPGGSLKLSCAASGFAFSSYDMSWVRQTPEKRLEWVATISSGGSYTSYPDSVQGRFTISRDNARNTLYLQMSSLRSEDTALYYCASSQLPPYAMDYWGQGTSVTVSS VL: DIVMTQSQKFMSTSVGDRVSITCKASQNVGTAVAWYQQKPGQSPKLLIYSASNRYTGVPDRFTGSGSGTDFTLTISNMQSEDLADYFCQQYSSYPLLTFGAGTKLELK" metric=IC50 units_symbol=nM meas_value=0.6

The binder listed as 253 RAGE-1 (antibody, V domains shown, Anti-RAGE monoclonal antibody from a hybridoma, captured by anti-mouse Fc; also called LP08127) VH: QVQLQQSGPELVKPGASVRISCKASGYTFTDYYIHWVKQRPGQGLEWIGWIYPGNVITKYNEKFKGKATLTADKSSSTAYMQLSSLTSEDSAVYFCARYDYDYAMDYWGQGTSVTVSS VL: DIVMSQSPSSLAVSVGEKVTMSCKSSQTLLYSSNQKNYLAWYQQKPGQSLKLLIYWASTRESGVPDRFAGSGSGTDFTLTISSVKAEDLAVYYCQQYFGYPYTFGGGTKLEIK has a reported IC50 of 0.7

Short answer for Control XT-M4 (antibody, V domains shown) VH: EVQLVESGGGLVQPGRSLKLSCVVSGFTFNNYWMTWIRQTPGKGLEWVASINNSGDNTYYPDSVKDRFTISRDNAKSTLYLQMNSLRSEDTATYYCTRGGDITTGFDYWGQGVMVTVSS VL: DIQMTQSPSSMSVSLGDTITITCRASQDVGIYVNWFQQKPGKSPRRMIYRATNLADGVPSRFSGSRSGSIYSLTISSLESEDVADYHCLEFDEHPLTFGSGTKVEIK : IC50 was 1.37

The reported measurements were obtained from patent US20120282637A1.
